TEST_SYSTEM: CD28 (human) (UniProt P10747)
EXPERIMENT_NOTES: flow cytometry, Jurkat cells (CD28)
MEASURED_PROPERTY: MFI at 33.3 nM
Please state the number and follow it with the unit.

Measured MFI at 33.3 nM, CD80 IgV-Fc H18Y/V22A/E35D/T41S/M47V/T62N/A71G/A91G (Fc fusion) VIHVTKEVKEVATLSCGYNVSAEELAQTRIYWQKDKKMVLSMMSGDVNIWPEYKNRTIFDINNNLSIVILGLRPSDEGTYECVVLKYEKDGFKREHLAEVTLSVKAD : 1590 MFI

Measured MFI at 33.3 nM, CD80 E35D/D46V/M47L/V68M/L85Q/E88D IgV-Fc, (EAAAK)3 linker (Fc fusion) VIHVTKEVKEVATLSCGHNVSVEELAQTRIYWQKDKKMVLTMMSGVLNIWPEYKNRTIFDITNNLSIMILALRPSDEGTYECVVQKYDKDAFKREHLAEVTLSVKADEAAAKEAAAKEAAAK : 197 MFI

Measured MFI at 33.3 nM, CD80 IgV-Fc S15T/H18Y/E35D/M47V/T62A/N64S/A71G/L85Q/D90N (Fc fusion) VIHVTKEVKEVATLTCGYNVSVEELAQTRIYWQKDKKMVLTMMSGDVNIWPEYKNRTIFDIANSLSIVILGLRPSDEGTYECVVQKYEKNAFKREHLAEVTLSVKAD : 1070 MFI

Measured MFI at 33.3 nM, variant CD80 IgV-Fc H18Y/E35D/A71G/D90G (Fc fusion) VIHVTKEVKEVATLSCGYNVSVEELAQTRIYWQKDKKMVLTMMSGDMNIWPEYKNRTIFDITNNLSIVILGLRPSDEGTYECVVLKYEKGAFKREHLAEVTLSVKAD : 1310 MFI
